Biological target: Jak2 (human Jak2 kinase domain, amino acids 808-1132) (Homo sapiens (Human))
Sequence (O60674 808-1132): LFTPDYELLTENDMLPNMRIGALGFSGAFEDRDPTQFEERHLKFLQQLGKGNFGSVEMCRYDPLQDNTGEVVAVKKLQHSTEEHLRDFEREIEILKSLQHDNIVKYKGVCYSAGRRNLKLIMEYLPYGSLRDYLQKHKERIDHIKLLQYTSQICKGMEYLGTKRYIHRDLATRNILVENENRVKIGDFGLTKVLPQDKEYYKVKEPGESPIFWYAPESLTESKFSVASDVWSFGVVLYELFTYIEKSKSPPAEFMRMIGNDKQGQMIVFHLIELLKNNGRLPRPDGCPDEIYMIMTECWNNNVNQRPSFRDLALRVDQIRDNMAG
Assay: Jak2 inhibition assay (Omnia kinase assay)
Format: biochemical
Conditions: read-out: Jak2 (% inhibition at 1000 nM), Table 2; 1000 nM test compound
Each item that follows carries a reported inhibition at 1 µM.
Number in %, nothing else.

Before answering, review these 3 worked examples.
>>> meas_value("C[C@@H](NC(=O)c1cnn2ccc(N3CCC[C@@H]3c3cncc(F)c3)nc12)C1CC1")
49.1
>>> meas_value("Cc1ncc(F)cc1[C@H]1CCCN1c1ccn2ncc(C(=O)NC3(C)CC3)c2n1")
33.9
>>> meas_value("C[C@H](NC(=O)c1cnn2ccc(N3CCC[C@@H]3c3cncc(F)c3)nc12)C1CC1")
72.3

Now look at this entry.
Lookup: Could you tell me which inhibition at 1 µM is on file for Cc1ncc(F)cc1[C@H]1CCCN1c1ccn2ncc(C(=O)N[C@H]3CC[C@H](O)CC3)c2n1 ?
Found: 37.6
